Attribute: viability at 28.5 h, 10 µM
# TEST DETAILS: in vitro
# TEST CONTEXT: human, hela cells, % viability

{"COMPOUND": "COC1C(O)C(CO)OC1n1cc(F)c(Oc2c(C)cc(C)cc2C)nc1=O (stereo not drawn)", "viability at 28.5 h, 10 µM, %": 98.2}
{"COMPOUND": "Cc1cccc(C(=O)O)c1NC(=O)Cc1cccc2ccccc12", "viability at 28.5 h, 10 µM, %": 111}
{"COMPOUND": "COc1ccc(S(=O)(=O)N2CCN(C(=O)c3cc(-c4ccncc4)nc4c(C)c(Cl)ccc34)CC2)cc1", "viability at 28.5 h, 10 µM, %": 92.6}
{"COMPOUND": "O=C(c1ccco1)N1CCC(c2ccnc3nc4ccccc4n23)CC1", "viability at 28.5 h, 10 µM, %": 87.2}
{"COMPOUND": "CS(=O)(=O)N1C[C@@H]2CCCCN(Cc3cccc(F)c3F)[C@@H]2C1", "viability at 28.5 h, 10 µM, %": 95.6}
{"COMPOUND": "O=C(CN1C(=O)[C@@H]2CCCN2C(=O)c2ccccc21)NCCc1ccccc1", "viability at 28.5 h, 10 µM, %": 87.1}
{"COMPOUND": "O=C1NC2(CCCN(C(=O)c3ccco3)C2)Oc2ccccc21 (stereo not drawn)", "viability at 28.5 h, 10 µM, %": 99.8}
{"COMPOUND": "Cc1ccnc(N2C(=O)c3ccc(C(=O)c4ccc5c(c4)C(=O)N(c4cc(C)ccn4)C5=O)cc3C2=O)c1", "viability at 28.5 h, 10 µM, %": 93.4}
{"COMPOUND": "O=C(CN1CCC[C@@H]1CN1CCCC1)Nc1ncccn1", "viability at 28.5 h, 10 µM, %": 103}
